- studyTarget: human CCR5 chemokine receptor (Homo sapiens, UniProt P51681)
- Construct: expressed in transfected cells
- Sequence (P51681 whole entry): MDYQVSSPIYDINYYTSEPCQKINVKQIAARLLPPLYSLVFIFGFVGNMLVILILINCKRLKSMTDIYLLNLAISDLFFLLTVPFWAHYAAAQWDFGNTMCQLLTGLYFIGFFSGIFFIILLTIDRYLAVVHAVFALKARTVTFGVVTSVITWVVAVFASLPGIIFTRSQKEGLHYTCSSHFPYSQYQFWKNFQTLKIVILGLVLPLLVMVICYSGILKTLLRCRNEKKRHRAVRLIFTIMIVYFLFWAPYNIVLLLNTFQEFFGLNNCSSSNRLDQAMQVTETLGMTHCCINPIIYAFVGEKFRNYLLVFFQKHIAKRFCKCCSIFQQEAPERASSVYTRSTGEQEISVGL
- testProtocol: Inhibition of [125I]-RANTES binding to CCR5/CHO cells (CCR5 antagonistic activity)
- studyConditions: 40 min, test compound 1 μM, [125I]-RANTES as ligand, room temperature, read-out: Binding Inhibitory Ratio (%)
Below, each entry is listed alongside its reported inhibition at 1 µM.
Give your result in % as a bare value.

As a guide, the following entries are already answered.
{"compound": "CCCCOCCOc1ccc(-c2ccc3c(c2)C=C(C(=O)Nc2ccc(SCc4nccn4C)c(C)c2)CCN3CC(C)C)cc1", "inhibition at 1 µM [%]": 99}
{"compound": "CCCCOCCOc1ccc(-c2ccc3c(c2)C=C(C(=O)Nc2ccc(SCc4nccn4C4CC4)cc2)CCN3CC(C)C)cc1", "inhibition at 1 µM [%]": 96}
{"compound": "CCCCOCCOc1ccc(-c2ccc3c(c2)C=C(C(=O)Nc2ccc([S+]([O-])Cc4cncn4C4CC4)cc2)CCN3CC(C)C)cc1 (stereo not drawn)", "inhibition at 1 µM [%]": 97}

Form: compound = CCCCOCCOc1ccc(-c2ccc3c(c2)C=C(C(=O)Nc2ccc(SCc4cnc5n4CCCC5)cc2)CCN3CC(C)C)cc1 ; inhibition at 1 µM = 85

Form: compound = CCCCOCCOc1ccc(-c2ccc3c(c2)C=C(C(=O)Nc2ccc([S+]([O-])Cc4nncn4CC)cc2)CCN3CC(C)C)cc1 (stereo not drawn) ; inhibition at 1 µM = 100

Form: compound = CCCCOCCOc1ccc(-c2ccc3c(c2)C=C(C(=O)Nc2ccc([S+]([O-])Cc4cncn4CCOC)cc2)CCN3CC(C)C)cc1 (stereo not drawn) ; inhibition at 1 µM = 100
